src = patent US20250325687A1

Give measured EC50 for each item. Keep answers brief.
- Assayed target: hTLR7 (human Toll-like receptor 7) (Homo sapiens, UniProt Q9NYK1)
- Sequence (Q9NYK1 27-1049): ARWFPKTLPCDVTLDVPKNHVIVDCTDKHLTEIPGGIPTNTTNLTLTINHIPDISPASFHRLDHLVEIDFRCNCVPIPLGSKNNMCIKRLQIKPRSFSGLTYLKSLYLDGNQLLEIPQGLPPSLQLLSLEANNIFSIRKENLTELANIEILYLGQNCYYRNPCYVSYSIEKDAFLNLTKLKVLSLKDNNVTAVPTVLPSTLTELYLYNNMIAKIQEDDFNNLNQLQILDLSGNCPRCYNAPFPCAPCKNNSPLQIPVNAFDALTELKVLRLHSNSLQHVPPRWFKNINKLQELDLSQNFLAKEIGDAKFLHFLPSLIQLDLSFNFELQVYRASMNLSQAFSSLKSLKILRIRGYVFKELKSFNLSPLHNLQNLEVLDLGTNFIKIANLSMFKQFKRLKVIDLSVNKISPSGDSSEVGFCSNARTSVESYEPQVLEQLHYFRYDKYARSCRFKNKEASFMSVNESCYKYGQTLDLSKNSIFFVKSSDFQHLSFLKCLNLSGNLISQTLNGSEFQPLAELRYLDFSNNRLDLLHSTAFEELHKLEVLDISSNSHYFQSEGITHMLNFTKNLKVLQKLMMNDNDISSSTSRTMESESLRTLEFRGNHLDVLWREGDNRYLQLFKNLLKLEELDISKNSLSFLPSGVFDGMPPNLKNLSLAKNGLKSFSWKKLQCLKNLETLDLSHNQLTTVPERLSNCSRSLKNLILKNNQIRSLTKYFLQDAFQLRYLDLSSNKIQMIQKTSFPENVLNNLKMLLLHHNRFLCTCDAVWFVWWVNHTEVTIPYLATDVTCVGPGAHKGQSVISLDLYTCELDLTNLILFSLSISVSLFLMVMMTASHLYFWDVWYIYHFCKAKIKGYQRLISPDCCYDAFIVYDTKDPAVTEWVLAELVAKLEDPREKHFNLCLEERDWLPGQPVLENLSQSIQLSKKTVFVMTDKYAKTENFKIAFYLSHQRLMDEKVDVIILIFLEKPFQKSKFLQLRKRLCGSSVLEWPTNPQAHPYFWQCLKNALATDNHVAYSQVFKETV
- Protocol text: hTLR7 cell assay (HEK-Blue hTLR7 reporter cells)
- Assay context: 24 hours, OD 650 nm

[
  {
    "Compound": "CCOCc1nc2c(N)nc3cc(Cc4ccc(CCN)cc4)ccc3c2n1CC1(O)CC1",
    "Assayed target": "hTLR7 (human Toll-like receptor 7) (Homo sapiens, UniProt Q9NYK1)",
    "Assay result": "> 10000 nM"
  },
  {
    "Compound": "CCOCc1nc2c(N)nc3cc(Cc4ccc(CCN)cc4)ccc3c2n1CC(C)(C)O",
    "Assayed target": "hTLR7 (human Toll-like receptor 7) (Homo sapiens, UniProt Q9NYK1)",
    "Assay result": "1000 to 10000 nM"
  },
  {
    "Compound": "CCOCc1nc2c(N)nc3cc(Cc4cc(CN)ccc4F)ccc3c2n1CC(C)(C)O",
    "Assayed target": "hTLR7 (human Toll-like receptor 7) (Homo sapiens, UniProt Q9NYK1)",
    "Assay result": "< 1000 nM"
  }
]

Value sought for every listed compound: EC50.
1. CCCCc1nc2c(N)nc3cc(Cc4ccc5c(c4)C(N)CCC5)ccc3c2n1CC(C)(C)O (centres unmarked)
2. CCOCc1nc2c(N)nc3cc(Cc4cccc(N5CCNCC5)c4)ccc3c2n1CC(C)(C)O
3. CCOCc1nc2c(N)nc3cc(Cc4ccccc4)ccc3c2n1CC1(OCCN)CC1
4. CCCC(C)c1nc2c(N)nc3cc(Cc4ccc(CCN)cc4)ccc3c2n1CC(C)(C)O (centres unmarked)
5. CCCCc1nc2c(N)nc3cc(Cc4ccc(CCN)cc4)ccc3c2n1CC(C)(C)O
6. CCOCc1nc2c(N)nc3cc(Cc4ccc(CCN)cc4)ccc3c2n1CC(C)(C)OCCNC(=O)C(C)(C)N

Result:
1. < 1000 nM
2. < 1000 nM
3. 1000 to 10000 nM
4. 1000 to 10000 nM
5. < 1000 nM
6. < 1000 nM

Value sought for every listed compound: EC50.
1. CCCC(C)c1nc2c(N)nc3cc(Cc4cccc(CCN)c4)ccc3c2n1CC(C)(C)O (centres unmarked)
2. CCCCc1nc2c(N)nc3cc(Cc4cccc(OCCN)c4)ccc3c2n1CC(C)(C)O

Result:
1. 1000 to 10000 nM
2. < 1000 nM

Value sought for every listed compound: EC50.
1. CCOCc1nc2c(N)nc3cc(Cc4cccc(CCN)c4)ccc3c2n1CC(C)(C)O
2. CCC[C@H](C)c1nc2c(N)nc3cc(Cc4ccccc4)ccc3c2n1CC(C)(C)OCCN
3. CCCCc1nc2c(N)nc3cc(Cc4ccc5c(c4)CNCC5)ccc3c2n1CC(C)(C)O
4. CCCCc1nc2c(N)nc3cc(Cc4ccc5c(c4)CC(N)CC5)ccc3c2n1CC(C)(C)O (centres unmarked)
5. CCOCc1nc2c(N)nc3cc(Cc4ccccc4)ccc3c2n1CC(C)(C)OCCCN
6. CCC[C@@H](C)c1nc2c(N)nc3cc(Cc4ccc(CCN)cc4)ccc3c2n1CC(C)(C)O

Result:
["1000 to 10000 nM", "> 10000 nM", "< 1000 nM", "< 1000 nM", "1000 to 10000 nM", "> 10000 nM"]
